subjectOfTest: T1, IL-10R1-Fc (UniProt Q13651 22-235, limits assumed)
T1 sequence (looked up): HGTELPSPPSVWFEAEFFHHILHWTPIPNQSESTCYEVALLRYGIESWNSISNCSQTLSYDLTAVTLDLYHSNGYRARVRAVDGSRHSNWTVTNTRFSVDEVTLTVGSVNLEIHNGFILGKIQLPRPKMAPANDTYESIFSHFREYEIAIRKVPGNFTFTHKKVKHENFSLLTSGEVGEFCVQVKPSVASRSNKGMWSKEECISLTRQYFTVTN
assayExplanation: ELISA, IL-10R1-Fc coated
In this section we review reported Binding recovery (>60%) values for a set of binders.
reportedMetric: Binding recovery (>60%)

>>> testvalue("IL-10 Arg32Cys-R4-7 (ligand, human, UniProt P22301 19-178, looked up, R4-7 on Cys 32, mature) SPGQGTQSENSCTHFPGNLPNMLRDLRDAFSCVKTFFQMKDQLDNLLLKESLLEDFKGYLGCQALSEMIQFYLEEVMPQAENQDPDIKAHVNSLGENLKTLRLRLRRCHRFLPCENKSKAVEQVKNAFNKLQEKGIYKAMSEFDIFINYIEAYMTMKIRN")
90.4
>>> testvalue("IL-10 Arg24Cys-R4-20 (ligand, human, UniProt P22301 19-178, looked up, R4-20 on Cys 24, mature) SPGQGTQSENSCTHFPGNLPNMLCDLRDAFSRVKTFFQMKDQLDNLLLKESLLEDFKGYLGCQALSEMIQFYLEEVMPQAENQDPDIKAHVNSLGENLKTLRLRLRRCHRFLPCENKSKAVEQVKNAFNKLQEKGIYKAMSEFDIFINYIEAYMTMKIRN")
90
>>> testvalue("IL-10 Phe111Cys-R4-8 (ligand, human, UniProt P22301 19-178, looked up, R4-8 on Cys 111, mature) SPGQGTQSENSCTHFPGNLPNMLRDLRDAFSRVKTFFQMKDQLDNLLLKESLLEDFKGYLGCQALSEMIQFYLEEVMPQAENQDPDIKAHVNSLGENLKTLRLRLRRCHRCLPCENKSKAVEQVKNAFNKLQEKGIYKAMSEFDIFINYIEAYMTMKIRN")
90.1
>>> testvalue("IL-10 Leu94Cys-R4-6 (ligand, human, UniProt P22301 19-178, looked up, R4-6 on Cys 94, mature) SPGQGTQSENSCTHFPGNLPNMLRDLRDAFSRVKTFFQMKDQLDNLLLKESLLEDFKGYLGCQALSEMIQFYLEEVMPQAENQDPDIKAHVNSCGENLKTLRLRLRRCHRFLPCENKSKAVEQVKNAFNKLQEKGIYKAMSEFDIFINYIEAYMTMKIRN")
88.4
